B1: FCHO1 (parent)
chain: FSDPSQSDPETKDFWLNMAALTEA

variants of: B1; test: protein stability index of a GFP-peptide fusion (GPS, HEK-293T) (PSI 1-6); higher = more stable; conditions: c terminus: a fixed tail appended;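 further: lentivirally expressed fusions sorted by FACS into six bins by GFP to DsRed ratio, PSI derived from sequencing read proportions per bin multiplied by bin number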
experimental-readout: protein stability index
The answer should be written as a number, with no unit following it.

Solved entries (count: 3):
{"change": "T22I", "protein stability index": 2.86}
{"change": "S7Y", "protein stability index": 2.69}
{"change": "E23F", "protein stability index": 1.59}

(Q) What does the record list as protein stability index for A19D ?
(A) 2.53

(Q) How about this variant: D3I
(A) 1.71
